B1: library; a variant is named by its letters at N, in order (parent)
chain: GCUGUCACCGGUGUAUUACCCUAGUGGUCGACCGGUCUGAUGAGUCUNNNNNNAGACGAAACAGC

Variants of: B1
Protocol Notes: FACS-Seq fitted mean relative fluorescence mCherry/BFP without ligand (log10 relative fluorescence); ligand: hypoxanthine (xanthine aptamer); higher = higher reporter protein expression
Assay Conditions: HEK293T, ligand present: no
Reported Endpoint: FACS-Seq fitted mean (log10)
Give bare numbers.

Variant Identifier	Reported Value
GCUUAG	0.401
UGAUUU	0.485
UCCGGA	0.226
AUGAAC	0.618
AUGUUG	0.146

Count: 5. Required value per item: FACS-Seq fitted mean (log10).
1. UAUUAC
2. AACGCC
3. UGCCGG
4. UAAAGC
5. GGAAGA

Result string:
0.513
0.0156
-0.14
0.687
0.0989
